# Test system: 596521-263-R-J1-PDC complex spheroids, viability % of control
# protocol-description: Anticancer human tumor 596521-263-R-J1-PDC patient-derived soft tissue sarcoma cell line growth inhibition [GQUAD]
# experimental-parameters: second compound 0.316 µM; first compound 3.16 µM; active compounds read low
property-name: viability, T/C

Prompt: Specify measured viability, T/C for COc1ccc([C@@H](O)c2cc(-c3ncnc4cc(N5CCOCC5)ccc34)c(F)cc2Cl)nn1 + Cc1cnc(CNC(=O)c2c(=O)c3ccc(N4CCCN(C)CC4)nc3n3c2sc2ccccc23)cn1 .
Completion: 42.9%

Prompt: Specify measured viability, T/C for CC1COCCN1c1cc(-c2ccnn2C)c2ccnc(-c3ccn[nH]3)c2n1 (stereo not given) + Cc1[nH]c2ccc(F)cc2c1-c1nc2c3cccnc3c3ncccc3c2[nH]1 .
Completion: 31.8%

Prompt: Specify measured viability, T/C for CC(=O)O[C@H]1C(=O)[C@@]2(C)[C@H]([C@H](OC(=O)c3ccccc3)[C@]3(O)C[C@H](OC(=O)[C@H](O)[C@@H](NC(=O)c4ccccc4)c4ccccc4)C(C)=C1C3(C)C)[C@]1(OC(C)=O)CO[C@@H]1C[C@@H]2O + CN(C)c1ccc(Nc2c3ccc(NC(=O)CCN4CCCC4)cc3nc3cc(NC(=O)CCN4CCCC4)ccc23)cc1 .
Completion: 29.3%

Prompt: Specify measured viability, T/C for CC1COCCN1c1cc(C2(O)CC3CCC(C2)O3)c2cnn(-c3ccn[nH]3)c2n1 (stereo not given) + Cc1[nH]c2ccc(F)cc2c1-c1nc2c3cccnc3c3ncccc3c2[nH]1 .
Completion: 25.3%

Prompt: Specify measured viability, T/C for Nc1ccn(C2OC(CO)C(O)C2(F)F)c(=O)n1 (stereo not given) + CN(C)c1ccc(Nc2c3ccc(NC(=O)CCN4CCCC4)cc3nc3cc(NC(=O)CCN4CCCC4)ccc23)cc1 .
Completion: 40.1%

Prompt: Specify measured viability, T/C for CC(C)(O)C1CCC(Nc2ccc3ncc(-c4cccc(C(F)(F)F)c4)n3n2)CC1 (stereo not given) + CN(C)c1ccc(Nc2c3ccc(NC(=O)CCN4CCCC4)cc3nc3cc(NC(=O)CCN4CCCC4)ccc23)cc1 .
Completion: 19.9%

Prompt: Specify measured viability, T/C for O=C(c1cc(Cc2n[nH]c(=O)c3ccccc23)ccc1F)N1CCN(C(=O)C2CC2)CC1 + Cc1cnc(CNC(=O)c2c(=O)c3ccc(N4CCCN(C)CC4)nc3n3c2sc2ccccc23)cn1 .
Completion: 73.3%

Prompt: Specify measured viability, T/C for COc1cc(C2c3cc4c(cc3C(OC3OC5COC(C)OC5C(O)C3O)C3COC(=O)C23)OCO4)cc(OC)c1O (stereo not given) + CN(C)c1ccc(Nc2c3ccc(NC(=O)CCN4CCCC4)cc3nc3cc(NC(=O)CCN4CCCC4)ccc23)cc1 .
Completion: 56.8%

Prompt: Specify measured viability, T/C for COc1cc(C2c3cc4c(cc3C(OC3OC5COC(C)OC5C(O)C3O)C3COC(=O)C23)OCO4)cc(OC)c1O (stereo not given) + Cc1[nH]c2ccc(F)cc2c1-c1nc2c3cccnc3c3ncccc3c2[nH]1 .
Completion: 57.9%

Prompt: Specify measured viability, T/C for CC(C)n1c(=O)n(C)c2cnc3cc(F)c(-c4ccc(OCCCN5CCCCC5)nc4)cc3c21 + Cc1cnc(CNC(=O)c2c(=O)c3ccc(N4CCCN(C)CC4)nc3n3c2sc2ccccc23)cn1 .
Completion: 62.4%

----------
Would you mind telling me the reported viability, T/C of each entry?
# Tested on: 596521-263-R-J1-PDC complex spheroids, viability % of control
# protocol-description: Anticancer human tumor 596521-263-R-J1-PDC cell line growth inhibition [GQUAD];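 also: spheroids exposed to drugs for 7 days before viability reading; 100% = DMSO vehicle control viability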
# experimental-parameters: second compound 0.1 µM; first compound 1 µM; active compounds read low
Record the value in %, omitting the unit from your answer.

Prompt: Report the value of viability, T/C obtained on 596521-263-R-J1-PDC complex spheroids, viability % of control for CC(=O)O[C@H]1C(=O)[C@@]2(C)[C@H]([C@H](OC(=O)c3ccccc3)[C@]3(O)C[C@H](OC(=O)[C@H](O)[C@@H](NC(=O)c4ccccc4)c4ccccc4)C(C)=C1C3(C)C)[C@]1(OC(C)=O)CO[C@@H]1C[C@@H]2O + Cc1cnc(CNC(=O)c2c(=O)c3ccc(N4CCCN(C)CC4)nc3n3c2sc2ccccc23)cn1 .
Completion: 28.8

Prompt: Report the value of viability, T/C obtained on 596521-263-R-J1-PDC complex spheroids, viability % of control for Cc1cccc(N(C)C(=O)C2C(O)CCN2c2nc(C)cc(C(F)(F)F)c2C#N)c1 (stereo not given) + CN(C)c1ccc(Nc2c3ccc(NC(=O)CCN4CCCC4)cc3nc3cc(NC(=O)CCN4CCCC4)ccc23)cc1 .
Completion: 109

Prompt: Report the value of viability, T/C obtained on 596521-263-R-J1-PDC complex spheroids, viability % of control for COc1ccc([C@@H](O)c2cc(-c3ncnc4cc(N5CCOCC5)ccc34)c(F)cc2Cl)nn1 + CN(C)c1ccc(Nc2c3ccc(NC(=O)CCN4CCCC4)cc3nc3cc(NC(=O)CCN4CCCC4)ccc23)cc1 .
Completion: 77.1

Prompt: Report the value of viability, T/C obtained on 596521-263-R-J1-PDC complex spheroids, viability % of control for CC(C)(O)C1CCC(Nc2ccc3ncc(-c4cccc(C(F)(F)F)c4)n3n2)CC1 (stereo not given) + CN(C)c1ccc(Nc2c3ccc(NC(=O)CCN4CCCC4)cc3nc3cc(NC(=O)CCN4CCCC4)ccc23)cc1 .
Completion: 61

Prompt: Report the value of viability, T/C obtained on 596521-263-R-J1-PDC complex spheroids, viability % of control for COc1ncnc(C2CC2)c1-c1ncc2cnn(Cc3ccc(-c4nc(C(F)(F)F)cn4C(C)C)cc3)c2n1 + Cc1cnc(CNC(=O)c2c(=O)c3ccc(N4CCCN(C)CC4)nc3n3c2sc2ccccc23)cn1 .
Completion: 77.1

----------
Would you mind telling me the reported viability, T/C of each entry?
# System: 596521-263-R-J1-PDC complex spheroids, viability % of control
# protocol-description: Anticancer human tumor 596521-263-R-J1-PDC cell line growth inhibition [GQUAD];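 also: spheroids exposed to drugs for 7 days before viability reading; 100% = DMSO vehicle control viability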
# experimental-parameters: second compound 0.1 µM; first compound 1 µM; active compounds read low
Record the value in %, omitting the unit from your answer.

Prompt: Specify measured viability, T/C for CC(=O)O[C@H]1C(=O)[C@@]2(C)[C@H]([C@H](OC(=O)c3ccccc3)[C@]3(O)C[C@H](OC(=O)[C@H](O)[C@@H](NC(=O)c4ccccc4)c4ccccc4)C(C)=C1C3(C)C)[C@]1(OC(C)=O)CO[C@@H]1C[C@@H]2O + CN(C)c1ccc(Nc2c3ccc(NC(=O)CCN4CCCC4)cc3nc3cc(NC(=O)CCN4CCCC4)ccc23)cc1 .
Completion: 28

Prompt: Specify measured viability, T/C for CC(C)n1c(=O)n(C)c2cnc3cc(F)c(-c4ccc(OCCCN5CCCCC5)nc4)cc3c21 + Cc1cnc(CNC(=O)c2c(=O)c3ccc(N4CCCN(C)CC4)nc3n3c2sc2ccccc23)cn1 .
Completion: 63.9

Prompt: Specify measured viability, T/C for CCCS(=O)(=O)Nc1ccc(F)c(C(=O)c2c[nH]c3ncc(-c4ccc(Cl)cc4)cc23)c1F + CN(C)c1ccc(Nc2c3ccc(NC(=O)CCN4CCCC4)cc3nc3cc(NC(=O)CCN4CCCC4)ccc23)cc1 .
Completion: 83

Prompt: Specify measured viability, T/C for CC(C)(O)C1CCC(Nc2ccc3ncc(-c4cccc(C(F)(F)F)c4)n3n2)CC1 (centres undefined) + Cc1cnc(CNC(=O)c2c(=O)c3ccc(N4CCCN(C)CC4)nc3n3c2sc2ccccc23)cn1 .
Completion: 59.5

----------
# System: 596521-263-R-J1-PDC complex spheroids, viability % of control
# protocol-description: Anticancer human tumor 596521-263-R-J1-PDC cell line growth inhibition [GQUAD];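 also: spheroids exposed to drugs for 7 days before viability reading; 100% = DMSO vehicle control viability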
# experimental-parameters: second compound 0.0316 µM; first compound 0.0316 µM; active compounds read low
property-name: viability, T/C (%)
Record the value in %, omitting the unit from your answer.

Prompt: Specify measured viability, T/C for O=C(c1cc(Cc2n[nH]c(=O)c3ccccc23)ccc1F)N1CCN(C(=O)C2CC2)CC1 + CN(C)c1ccc(Nc2c3ccc(NC(=O)CCN4CCCC4)cc3nc3cc(NC(=O)CCN4CCCC4)ccc23)cc1 .
Completion: 112

Prompt: Specify measured viability, T/C for COc1ncnc(C2CC2)c1-c1ncc2cnn(Cc3ccc(-c4nc(C(F)(F)F)cn4C(C)C)cc3)c2n1 + Cc1[nH]c2ccc(F)cc2c1-c1nc2c3cccnc3c3ncccc3c2[nH]1 .
Completion: 100

Prompt: Specify measured viability, T/C for C#Cc1c(F)ccc2cc(O)cc(-c3ncc4c(N5CC6CCC(C5)N6)nc(OCC56CCCN5CC(F)C6)nc4c3F)c12 (stereo not drawn) + CN(C)c1ccc(Nc2c3ccc(NC(=O)CCN4CCCC4)cc3nc3cc(NC(=O)CCN4CCCC4)ccc23)cc1 .
Completion: 105
